Below, each of the molecules is paired with its reported melting point value.

Observe how each entry below is paired with its result.
NNc1cccc(F)c1[N+](=O)[O-]; 93 to 95 °C
CC(Cl)(Cl)C1(Cl)N=C(Cl)C(Cl)=N1; 58 to 60 °C
CCCc1ccc(OCCC(C)C)c2c(=O)cc(C(=O)O)oc12; 64.5 to 65 °C
CCS(=O)(=O)N(C)c1c(Cl)c(Cl)cc2[nH]c(=O)c(=O)[nH]c12; > 300 °C
Cc1ccc(NC(=O)NCc2cccc3c2C(=O)N(C2CCC(=O)NC2=O)C3=O)cc1Cl (stereo not given); 238 to 240 °C

Input line: Reported melting point for "COc1cc(OC)nc(Oc2cc([N+](=O)[O-])ccc2C(=O)O)n1" : what is it?
Output line: 93 to 96 °C

Input line: Proceed to "O=C(Nc1ccc(Cl)cn1)c1cc(Cl)ccc1NCC1CCN(C2CCSCC2)CC1"
Output line: 200 to 203 °C
